Taken from ChEMBL document CHEMBL3588775.

Molecular target: UniProtKB P28223
Assay: Partial agonist activity at human 5-HT2A receptor expressed in HEK293 cells preincubated for 1 hr at 37 degC followed by incubated for 15 mins at room temperature by IP-One assay relative to 5-HT
Type: cell-based
endpoint-label: Emax

query: Let me know recorded Emax for COc1cc(CCNCc2c(OC)cccc2OC)c(OC)cc1Br , thanks.
result: 53%

query: Let me know recorded Emax for COc1cc(CCNCc2cccc(OC)c2F)c(OC)cc1Br , thanks.
result: 22%

query: Let me know recorded Emax for COc1cc(CCNCc2cccc3c2OCC3)c(OC)cc1Br , thanks.
result: 33%

query: Let me know recorded Emax for COc1cc(CCNCc2cccc(OC)c2O)c(OC)cc1Br , thanks.
result: 21%

query: Let me know recorded Emax for COc1cc(CC(C)N)c(OC)cc1I (stereo not given) , thanks.
result: 87%

---

Target: 5-hydroxytryptamine receptor 2C (Homo sapiens, UniProt P28335)
Sequence (P28335 whole entry): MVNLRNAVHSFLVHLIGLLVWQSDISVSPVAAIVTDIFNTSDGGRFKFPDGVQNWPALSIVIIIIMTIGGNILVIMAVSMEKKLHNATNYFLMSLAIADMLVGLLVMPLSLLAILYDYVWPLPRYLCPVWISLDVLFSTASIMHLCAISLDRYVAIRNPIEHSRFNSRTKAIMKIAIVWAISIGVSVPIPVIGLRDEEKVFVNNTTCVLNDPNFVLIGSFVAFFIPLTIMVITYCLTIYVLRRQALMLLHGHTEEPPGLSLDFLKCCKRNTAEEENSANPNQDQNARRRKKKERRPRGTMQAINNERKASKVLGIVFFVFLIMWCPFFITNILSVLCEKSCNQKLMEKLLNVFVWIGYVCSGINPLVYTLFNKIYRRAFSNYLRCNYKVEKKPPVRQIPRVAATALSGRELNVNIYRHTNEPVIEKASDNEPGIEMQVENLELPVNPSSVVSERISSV
Binary label based on Ki with cut-off 20 nM: below gives rule met, not below gives rule not met.

query: A record lists COc1cc(CCNCc2ccc[nH]c2=O)c(OC)cc1Br . Is its Ki below 20 nM?
result: rule not met

query: A record lists COc1cc(CCNCc2cccc3ccoc23)c(OC)cc1Br . Is its Ki below 20 nM?
result: rule met

query: A record lists COc1ccc(CNCCc2cc(OC)c(Br)cc2OC)c(OC)c1 . Is its Ki below 20 nM?
result: rule not met

query: A record lists COc1cc(CCNCc2cccc3nc[nH]c23)c(OC)cc1Br . Is its Ki below 20 nM?
result: rule met

query: A record lists COc1cc(CCNCc2cccc(OC)c2OC)c(OC)cc1Br . Is its Ki below 20 nM?
result: rule not met

query: A record lists COc1cc(CCNCc2cccc3ccsc23)c(OC)cc1Br . Is its Ki below 20 nM?
result: rule met

query: A record lists COc1cc(CCNCc2c(OC)cccc2OC)c(OC)cc1Br . Is its Ki below 20 nM?
result: rule met

query: A record lists COc1cc(CCNCc2cccc3cn[nH]c23)c(OC)cc1Br . Is its Ki below 20 nM?
result: rule not met

---

Molecular target: Serotonin 2 receptors; 5-HT2a & 5-HT2c (Homo sapiens) (UniProt P28223+P28335)
Sequence (P28223 whole entry, looked up, one chain of several): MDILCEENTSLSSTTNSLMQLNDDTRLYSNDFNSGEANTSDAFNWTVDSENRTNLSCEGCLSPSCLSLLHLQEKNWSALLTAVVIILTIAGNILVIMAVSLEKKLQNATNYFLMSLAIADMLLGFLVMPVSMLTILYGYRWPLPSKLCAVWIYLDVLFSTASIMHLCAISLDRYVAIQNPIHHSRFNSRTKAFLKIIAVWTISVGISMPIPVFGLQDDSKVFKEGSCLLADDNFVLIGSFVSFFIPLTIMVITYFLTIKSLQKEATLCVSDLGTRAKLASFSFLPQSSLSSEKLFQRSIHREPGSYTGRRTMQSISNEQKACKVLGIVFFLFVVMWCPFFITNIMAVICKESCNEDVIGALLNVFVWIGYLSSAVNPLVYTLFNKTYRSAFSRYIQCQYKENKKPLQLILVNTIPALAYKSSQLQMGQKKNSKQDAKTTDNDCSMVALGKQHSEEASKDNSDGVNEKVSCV
Experiment: Selectivity for 5-HT2A receptor (unknown origin) over 5-HT2C receptor (unknown origin) by PDSP assay
Please respond with reported Selectivity ratio for every item in the list.
Please reply with the number alone, leaving off any unit.

query: Let me know recorded Selectivity ratio for COc1cc(CCNCc2cccc3cn[nH]c23)c(OC)cc1Br , thanks.
result: 2

query: Let me know recorded Selectivity ratio for COc1cc(CCNCc2ccc[nH]c2=O)c(OC)cc1Br , thanks.
result: 1

query: Let me know recorded Selectivity ratio for COc1cc(CCNCc2cccc3ccoc23)c(OC)cc1Br , thanks.
result: 4.2

query: Let me know recorded Selectivity ratio for COc1cc(CCNCc2cccc(OC)c2F)c(OC)cc1Br , thanks.
result: 17

query: Let me know recorded Selectivity ratio for COc1cc(CCNCc2cccc3cc[nH]c23)c(OC)cc1Br , thanks.
result: 5.1

query: Let me know recorded Selectivity ratio for COc1cc(CCNCc2cccc3nc[nH]c23)c(OC)cc1Br , thanks.
result: 1.2

query: Let me know recorded Selectivity ratio for COc1cc(CCNCc2cccnc2OC)c(OC)cc1Br , thanks.
result: 0.9

query: Let me know recorded Selectivity ratio for COc1cc(CCNCc2ccccn2)c(OC)cc1Br , thanks.
result: 1.1

---

Biological target: Serotonin 2 receptors; 5-HT2a & 5-HT2c (Homo sapiens) (UniProt P28223+P28335)
Assay: Selectivity for 5-HT2A receptor (unknown origin) over 5-HT2C receptor (unknown origin) by PDSP assay
Please respond with reported Selectivity ratio for every item in the list.

query: Print Serotonin 2 receptors; 5-HT2a & 5-HT2c (Homo sapiens) (UniProt P28223+P28335) Selectivity ratio for COc1cc(CCNCc2cccnc2)c(OC)cc1Br .
result: 1.4

query: Print Serotonin 2 receptors; 5-HT2a & 5-HT2c (Homo sapiens) (UniProt P28223+P28335) Selectivity ratio for COc1cc(CCNCc2ccncc2)c(OC)cc1Br .
result: 1.1

query: Print Serotonin 2 receptors; 5-HT2a & 5-HT2c (Homo sapiens) (UniProt P28223+P28335) Selectivity ratio for COc1cc(CCNCc2cccc(OC)c2O)c(OC)cc1Br .
result: 32

query: Print Serotonin 2 receptors; 5-HT2a & 5-HT2c (Homo sapiens) (UniProt P28223+P28335) Selectivity ratio for COc1cccc(CNCCc2cc(OC)c(Br)cc2OC)c1 .
result: 11

query: Print Serotonin 2 receptors; 5-HT2a & 5-HT2c (Homo sapiens) (UniProt P28223+P28335) Selectivity ratio for COc1cc(CCNCc2c(OC)cccc2OC)c(OC)cc1Br .
result: 0.06

query: Print Serotonin 2 receptors; 5-HT2a & 5-HT2c (Homo sapiens) (UniProt P28223+P28335) Selectivity ratio for COc1cc(CCNCc2cccc3ncoc23)c(OC)cc1Br .
result: 2.9

query: Print Serotonin 2 receptors; 5-HT2a & 5-HT2c (Homo sapiens) (UniProt P28223+P28335) Selectivity ratio for COc1ccc(OC)c(CNCCc2cc(OC)c(Br)cc2OC)c1 .
result: 2.5

query: Print Serotonin 2 receptors; 5-HT2a & 5-HT2c (Homo sapiens) (UniProt P28223+P28335) Selectivity ratio for COc1cc(CCNCc2cccc(OC)c2OC)c(OC)cc1Br .
result: 7.5

query: Print Serotonin 2 receptors; 5-HT2a & 5-HT2c (Homo sapiens) (UniProt P28223+P28335) Selectivity ratio for COc1cc(CCNCc2cccc(O)c2)c(OC)cc1Br .
result: 16

query: Print Serotonin 2 receptors; 5-HT2a & 5-HT2c (Homo sapiens) (UniProt P28223+P28335) Selectivity ratio for COc1ccc(CNCCc2cc(OC)c(Br)cc2OC)c(OC)c1 .
result: 1.3

query: Print Serotonin 2 receptors; 5-HT2a & 5-HT2c (Homo sapiens) (UniProt P28223+P28335) Selectivity ratio for COc1cc(CCNCc2cccc3ccsc23)c(OC)cc1Br .
result: 4.5

query: Print Serotonin 2 receptors; 5-HT2a & 5-HT2c (Homo sapiens) (UniProt P28223+P28335) Selectivity ratio for COc1cc(CCNCc2cccc3c2OCC3)c(OC)cc1Br .
result: 17

---

Biological target: 5-hydroxytryptamine receptor 2A (Homo sapiens, UniProt P28223)
Sequence (P28223 whole entry): as the sequence (P28223 whole entry, looked up, one chain of several) above
Assay: Partial agonist activity at human 5-HT2A receptor expressed in human tsA201 cells after 30 mins by inositol phosphate turnover assay
Type: functional, cell-based
endpoint-label: pEC50
The meaning of pEC50 here: minus log10 of the concentration in molar units.

query: Let me know recorded pEC50 for COc1cc(CCNCc2cccc3c2OCO3)c(OC)cc1Br , thanks.
result: 7.98

---

Target: Serotonin 2 receptors; 5-HT2a & 5-HT2c (Homo sapiens) (UniProt P28223+P28335)
Test: Selectivity for human 5-HT2A receptor over human 5-HT2C receptor by IP-One assay
endpoint-label: Selectivity ratio
Please reply with the number alone, leaving off any unit.

query: Let me know recorded Selectivity ratio for COc1cc(CCNCc2cccc(OC)c2F)c(OC)cc1Br , thanks.
result: 2.7

query: Let me know recorded Selectivity ratio for COc1cc(CCNCc2c(OC)cccc2OC)c(OC)cc1Br , thanks.
result: 16

query: Let me know recorded Selectivity ratio for COc1cc(CCNCc2cccc(OC)c2O)c(OC)cc1Br , thanks.
result: 457

query: Let me know recorded Selectivity ratio for COc1cc(CCNCc2cccc3c2OCC3)c(OC)cc1Br , thanks.
result: 7.1

---

Target: 5-hydroxytryptamine receptor 2C (Homo sapiens, UniProt P28335)
Sequence (P28335 whole entry): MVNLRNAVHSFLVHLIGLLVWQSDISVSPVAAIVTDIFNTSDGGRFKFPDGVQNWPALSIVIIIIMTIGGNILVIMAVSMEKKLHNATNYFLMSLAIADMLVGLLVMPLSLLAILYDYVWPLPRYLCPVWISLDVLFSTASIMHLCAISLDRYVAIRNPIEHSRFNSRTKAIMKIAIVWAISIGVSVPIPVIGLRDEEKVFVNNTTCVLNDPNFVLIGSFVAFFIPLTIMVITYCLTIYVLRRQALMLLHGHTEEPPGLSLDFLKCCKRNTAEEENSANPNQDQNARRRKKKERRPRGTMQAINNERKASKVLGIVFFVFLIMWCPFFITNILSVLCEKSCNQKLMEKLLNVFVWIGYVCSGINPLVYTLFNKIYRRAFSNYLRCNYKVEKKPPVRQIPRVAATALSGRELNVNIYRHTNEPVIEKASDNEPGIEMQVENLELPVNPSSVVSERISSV
Experiment: Partial agonist activity at human 5-HT2C receptor expressed in HEK293 cells preincubated for 1 hr at 37 degC followed by incubated for 15 mins at room temperature by IP-One assay
Assay type: cell-based
endpoint-label: pEC50
The meaning of pEC50 here: minus log10 of the concentration in molar units.

query: Let me know recorded pEC50 for COc1cc(CC(C)N)c(OC)cc1I (stereo not given) , thanks.
result: 7.34

query: Let me know recorded pEC50 for COc1cc(CCNCc2cccc(OC)c2O)c(OC)cc1Br , thanks.
result: 4.81

query: Let me know recorded pEC50 for COc1cc(CCNCc2c(OC)cccc2OC)c(OC)cc1Br , thanks.
result: 4.06

query: Let me know recorded pEC50 for COc1cc(CCNCc2cccc(OC)c2F)c(OC)cc1Br , thanks.
result: 6.55

query: Let me know recorded pEC50 for COc1cc(CCNCc2cccc3c2OCC3)c(OC)cc1Br , thanks.
result: 7.49
